Attribute: %-inhibition, AKT2
Biological target: panel of more than 300 wild-type and mutant kinases (313 kinase panel) (Homo sapiens)
Sequence (P31751 whole entry, change not shown): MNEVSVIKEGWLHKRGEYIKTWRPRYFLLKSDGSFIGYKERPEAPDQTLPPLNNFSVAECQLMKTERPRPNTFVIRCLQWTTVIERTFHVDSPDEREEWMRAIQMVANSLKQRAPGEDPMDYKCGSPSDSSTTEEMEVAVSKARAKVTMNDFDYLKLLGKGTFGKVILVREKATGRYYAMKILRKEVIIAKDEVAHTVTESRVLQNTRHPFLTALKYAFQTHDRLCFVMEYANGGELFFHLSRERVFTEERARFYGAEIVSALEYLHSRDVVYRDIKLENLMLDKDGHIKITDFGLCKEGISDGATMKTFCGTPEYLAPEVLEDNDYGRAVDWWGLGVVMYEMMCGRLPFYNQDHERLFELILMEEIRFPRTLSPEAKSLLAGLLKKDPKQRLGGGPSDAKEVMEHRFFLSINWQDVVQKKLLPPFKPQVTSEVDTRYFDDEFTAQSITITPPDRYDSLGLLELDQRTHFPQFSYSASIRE
Test: Kinase profiling in a biochemical assay panel (mobility shift assays and ELISA), %-inhibition at 1 μM; selectivity entropy
Settings: kinase AKT2; 1 μM compound
Please answer using a numeric value trailed by its unit.

{"Given smiles": "Cc1ccc(Nc2nccc(N(C)c3ccc4c(C)n(C)nc4c3)n2)cc1S(N)(=O)=O", "%-inhibition, AKT2": "-2%"}

Suppose we examine the molecule CO[C@H]1C[C@@H]2CC[C@@H](C)[C@@](O)(O2)C(=O)C(=O)N2CCCC[C@H]2C(=O)O[C@H]([C@H](C)C[C@@H]2CC[C@@H](OC(=O)C(C)(CO)CO)[C@H](OC)C2)CC(=O)[C@H](C)/C=C(\C)[C@@H](O)[C@@H](OC)C(=O)[C@H](C)C[C@H](C)/C=C/C=C/C=C/1C ; what %-inhibition, AKT2 value has been reported? -1.77%

N#CC[C@H](C1CCCC1)n1cc(-c2ncnc3[nH]ccc23)cn1 , same question. -3.68%

CS(=O)(=O)CCNCc1ccc(-c2ccc3ncnc(Nc4ccc(OCc5cccc(F)c5)c(Cl)c4)c3c2)o1 , same question. 4.61%

CC(=O)Nc1cccc(-n2c(=O)n(C3CC3)c(=O)c3c(Nc4ccc(I)cc4F)n(C)c(=O)c(C)c32)c1 , same question. -8%

CNC(=O)c1cc(Oc2ccc(NC(=O)Nc3ccc(Cl)c(C(F)(F)F)c3)c(F)c2)ccn1 , same question. -4%
